Molecular target: Excitatory amino acid transporter 1 (Homo sapiens, UniProt P43003)
Sequence (P43003 whole entry): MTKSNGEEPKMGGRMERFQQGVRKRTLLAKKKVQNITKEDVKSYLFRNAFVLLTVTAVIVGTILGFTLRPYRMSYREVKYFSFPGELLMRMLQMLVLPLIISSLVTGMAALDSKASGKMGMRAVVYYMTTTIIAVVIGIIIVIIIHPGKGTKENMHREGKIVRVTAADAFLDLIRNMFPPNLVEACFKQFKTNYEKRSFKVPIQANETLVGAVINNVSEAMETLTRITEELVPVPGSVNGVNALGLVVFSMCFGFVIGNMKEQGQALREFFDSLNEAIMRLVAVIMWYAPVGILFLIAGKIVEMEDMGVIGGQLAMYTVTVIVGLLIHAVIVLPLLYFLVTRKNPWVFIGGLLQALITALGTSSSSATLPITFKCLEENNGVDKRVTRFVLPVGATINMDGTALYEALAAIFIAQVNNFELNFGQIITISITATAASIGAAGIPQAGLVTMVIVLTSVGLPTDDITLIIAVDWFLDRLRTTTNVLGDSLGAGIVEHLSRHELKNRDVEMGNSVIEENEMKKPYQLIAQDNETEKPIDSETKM
Assay: Inhibition of human EAAT1 expressed in HEK293 cells by [3H]D-Asp uptake assay
Type: cell-based
Conditions: read-out: pIC50 (converted)
measurement_name: IC50

{"columns": ["molecule", "assayed_system", "IC50"],
 "data": [
  ["CC(C)(C)OC(=O)C1=C(N)OC2=C(C(=O)CC(c3ccccc3)C2)C1c1ccccc1 (configuration not stated)", "Excitatory amino acid transporter 1 (Homo sapiens, UniProt P43003)", "> 158 µM"]
]}

Recorded IC50 (molecule N#CC1=C(N)OC2=C(C(=O)O[C@@H](c3ccccc3)C2)[C@@H]1c1ccccc1 (relative stereo) ): > 316 µM

Measured IC50, COC(=O)C1=C(N)OC2=C(C(=O)CC(c3ccccc3)C2)C1c1ccccc1 (configuration not stated) : > 316 µM

Query CC1CC(=O)C2=C(C1)OC(N)=C(C#N)C2c1ccc2c(c1)OCO2 (configuration not stated) yields IC50 of > 316 µM

Lab note: measured IC50 of N#CC1=C(N)OC2=C(C1)C(=O)CC(c1ccccc1)C2 (configuration not stated) was > 316 µM

Reported IC50 ( CC1C(C#N)=C(N)OC2=C1C(=O)CC(c1cccc3ccccc13)C2 (configuration not stated) ) = 0.339 µM

What the record says about N#CC1=C(N)OC2=C(C(=O)CC(c3ccccc3)C2)C1c1ccccc1 (configuration not stated) : IC50 is 6.31 µM
